# experimentalSystem: C-C chemokine receptor type 1 (Homo sapiens, UniProt P32246)
# experimentalDetails: Displacement of [125I]MIP1-alpha from human CCR1 receptor expressed in THP1 cells
# Format: cell-based, THP-1
reportedProperty: pIC50
Scale for pIC50: -log10 of concentration given in mol/L; no unit attached.

Name the recorded pIC50 for O=S(=O)(c1c(Cl)cccc1Cl)N1CCC(N2CCC(O)(c3ccc(Cl)cc3)CC2)CC1 . 6.38

Try the molecule Cc1ccccc1S(=O)(=O)N1CCC(N2CCC(O)(c3ccc(Cl)cc3)CC2)CC1 6.30

Try the molecule O=S(=O)(c1ccccc1Cl)N1CCC(N2CCC(O)(c3ccc(Br)cc3)CC2)CC1 6.36

Try the molecule O=S(=O)(c1ccccc1Cl)N1CCC[C@@H](N2CCC(O)(c3ccc(Cl)cc3)CC2)C1 5.70

---

# experimentalSystem: C-C chemokine receptor type 1 (Homo sapiens)
# experimentalDetails: Antagonist activity at human CCR1 receptor expressed in THP1 cells assessed as human MIP-1-alpha-stimulated intracellular calcium level by FLIPR assay
# Type: functional, cell-based, THP-1
reportedProperty: log10 IC50 (log10 of the value in nM)
Form field - Quantity: IC50; Unit: nM; Scale: log10

Here is how some compounds turned out for log10 IC50.
O=S(=O)(c1ccccc1Cl)N1CCC(N2CCC(O)(c3ccc(Cl)cc3)CC2)CC1 ... 2.11
CC1(N2CCC(O)(c3ccc(Cl)cc3)CC2)CCN(S(=O)(=O)c2c(Cl)cccc2Cl)CC1 ... 3.67

Name the recorded log10 IC50 for O=S(=O)(NCCCN1CCC(O)(c2ccc(Cl)cc2)CC1)c1ccccc1-c1cccs1 . 2.36

Try the compound O=S(=O)(NCCCN1CCC(O)(c2ccc(Cl)cc2)CC1)c1ccsc1 2.59

Try the compound Cc1cccc(Cl)c1S(=O)(=O)N1CCC[C@@H](N2CCC(O)(c3ccc(Cl)cc3)CC2)C1 2.43

---

# experimentalSystem: C-C chemokine receptor type 1 (Homo sapiens, UniProt P32246)
# experimentalDetails: Displacement of [125I]MIP1-alpha from human CCR1 receptor expressed in THP1 cells
# Assay type: cell-based, THP-1
Reported pIC50 values are given for each entry in this list.
Scale for pIC50: -log10 of concentration given in mol/L; no unit attached.

CC1(N2CCC(O)(c3ccc(Cl)cc3)CC2)CCN(S(=O)(=O)c2ccccc2Cl)CC1 ... 5.29

Name the recorded pIC50 for CC1CC(N2CCC(O)(c3ccc(Cl)cc3)CC2)CCN1S(=O)(=O)c1ccccc1Cl (stereo not drawn) . 6.49

Try the molecule O=S(=O)(NCCCN1CCC(O)(c2ccc(Cl)cc2)CC1)c1cccc2ccccc12 6.17

Try the molecule O=S(=O)(NCCCN1CCC(O)(c2ccc(Cl)cc2)CC1)c1ccccc1-c1ccsc1 6.46

Try the molecule O=S(=O)(NCCCN1CCC(O)(c2ccc(Cl)cc2)CC1)c1cc(Cl)cc(Cl)c1 6.11

Try the molecule O=S(=O)(NCCCN1CCC(O)(c2ccc(Cl)cc2)CC1)c1ccccc1F 6.24

Try the molecule O=S(=O)(NCCCN1CCC(O)(c2ccc(Cl)cc2)CC1)c1ccccc1C(F)(F)F 6.60

---

# experimentalSystem: C-C chemokine receptor type 1 (Homo sapiens, UniProt P32246)
# experimentalDetails: Displacement of [125I]MIP1-alpha from human CCR1 receptor expressed in THP1 cells
# Type: cell-based, THP-1
reportedProperty: IC50 (µM)
Record the value in µM, omitting the unit from your answer.

Here is how some compounds turned out for IC50.
O=S(=O)(NCCCN1CCC(O)(c2ccc(Cl)cc2)CC1)c1c(Cl)cccc1Cl ... 0.08
O=S(=O)(c1ccccc1Br)N1CCC[C@@H](N2CCC(O)(c3ccc(Cl)cc3)CC2)C1 ... 1.4
O=S(=O)(NCCCN1CCC(O)(c2ccc(Cl)cc2)CC1)c1ccccc1Br ... 0.14
O=S(=O)(c1ccccc1Cl)N1CCC(N2CCC(O)(c3cccc(Cl)c3)CC2)CC1 ... 7
O=S(=O)(NCCCN1CCC(O)(c2ccc(Cl)cc2)CC1)c1ccccc1Cl ... 0.11
Cc1cccc(Cl)c1S(=O)(=O)N1CCC[C@@H](N2CCC(O)(c3ccc(Cl)cc3)CC2)C1 ... 0.39
O=S(=O)(c1ccccc1Cl)N1CCC(N2CCC(O)(c3cc(F)c(F)c(F)c3)CC2)CC1 ... 1.33
Cc1cccc(Cl)c1S(=O)(=O)N1CCC[C@H](N2CCC(O)(c3ccc(Cl)cc3)CC2)C1 ... 0.43

Name the recorded IC50 for Cc1cccc(Cl)c1S(=O)(=O)N1CCC(N2CCC(O)(c3ccc(Cl)cc3)CC2)CC1 . 0.37

Try the compound O=S(=O)(NCCCN1CCC(O)(c2ccc(Cl)cc2)CC1)c1ccc2ccccc2c1 1.15

Try the compound O=S(=O)(c1ccccc1Cl)N1CCC(N2CCC(O)(c3ccc(F)cc3)CC2)CC1 1.17

Try the compound O=S(=O)(NCCCN1CCC(O)(c2ccc(Cl)cc2)CC1)c1ccccc1-c1cccs1 0.24

Try the compound O=S(=O)(NCCCN1CCC(O)(c2ccc(Cl)cc2)CC1)c1cc(Cl)ccc1Cl 0.54

Try the compound O=S(=O)(NCCCN1CCC(O)(c2ccc(Cl)cc2)CC1)c1ccccc1 0.3

Try the compound O=S(=O)(c1c(F)cc(F)cc1Br)N1CCC(N2CCC(O)(c3ccc(Cl)cc3)CC2)CC1 1.12

Try the compound N#CC1(c2ccc(Cl)cc2)CCN(C2CCN(S(=O)(=O)c3ccccc3Cl)CC2)CC1 1

---

# experimentalSystem: C-C chemokine receptor type 1 (Homo sapiens, UniProt P32246)
# experimentalDetails: Displacement of [125I]MIP1-alpha from human CCR1 receptor expressed in THP1 cells
# Format: cell-based, THP-1
reportedProperty: pIC50
Scale for pIC50: -log10 of concentration given in mol/L; no unit attached.

Here is how some compounds turned out for pIC50.
O=S(=O)(c1ccccc1Cl)N1CCC(N2CCC(O)(c3ccc(Cl)c(Cl)c3)CC2)CC1 ... 6.05
O=S(=O)(NCCCN1CCC(O)(c2ccc(Cl)cc2)CC1)c1cccc(Cl)c1Cl ... 6.29

Now look at this one.
Name the recorded pIC50 for O=C(NCCCN1CCC(O)(c2ccc(Cl)cc2)CC1)c1ccc2ccccc2c1 . 5.23

---

# experimentalSystem: C-C chemokine receptor type 1 (Homo sapiens, UniProt P32246)
# Sequence (P32246 whole entry): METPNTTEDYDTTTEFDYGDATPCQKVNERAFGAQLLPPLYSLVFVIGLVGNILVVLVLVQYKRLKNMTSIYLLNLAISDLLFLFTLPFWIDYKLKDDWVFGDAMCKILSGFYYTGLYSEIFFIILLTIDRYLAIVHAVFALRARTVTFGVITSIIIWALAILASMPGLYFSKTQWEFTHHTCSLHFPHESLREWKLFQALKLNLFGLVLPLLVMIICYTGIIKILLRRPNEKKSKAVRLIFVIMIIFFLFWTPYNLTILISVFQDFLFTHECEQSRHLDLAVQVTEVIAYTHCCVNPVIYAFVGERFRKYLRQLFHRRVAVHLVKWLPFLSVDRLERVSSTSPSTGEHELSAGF
# experimentalDetails: Antagonist activity at human CCR1 receptor expressed in THP1 cells assessed as human MIP-1-alpha-stimulated intracellular calcium level by FLIPR assay
# Format: functional, cell-based, THP-1
Friendly reminder: IC50 below 200 nM is condition met, at or above is condition not met.

Example results:
O=S(=O)(NCCCN1CCC(O)(c2ccc(Cl)cc2)CC1)c1c(Cl)cccc1Cl ... condition met
Cc1ccc(S(=O)(=O)NCCCN2CCC(O)(c3ccc(Cl)cc3)CC2)cc1 ... condition met
O=S(=O)(NCCCN1CCC(O)(c2ccc(Cl)cc2)CC1)c1cc(Cl)ccc1Cl ... condition not met
Cc1ccccc1S(=O)(=O)N1CCC(N2CCC(O)(c3ccc(Cl)cc3)CC2)CC1 ... condition met
O=S(=O)(c1ccccc1Cl)N1CCC(N2CCC(O)(c3ccc(Oc4ccccc4)cc3)CC2)CC1 ... condition not met

Take the compound O=S(=O)(c1c(F)cc(F)cc1Br)N1CCC(N2CCC(O)(c3ccc(Cl)cc3)CC2)CC1 and say whether its IC50 is less than 200 nM. condition not met

Try the compound O=S(=O)(NCCCN1CCC(O)(c2ccc(Cl)cc2)CC1)c1ccccc1F condition met

Try the compound CC1(N2CCC(O)(c3ccc(Cl)cc3)CC2)CCN(S(=O)(=O)c2cccs2)CC1 condition not met

Try the compound O=S(=O)(c1ccccc1Cl)N1CCC(N2CCC(O)(c3cc(F)c(F)c(F)c3)CC2)CC1 condition not met

Try the compound O=S(=O)(NCCCN1CCC(O)(c2ccc(Cl)cc2)CC1)c1ccccc1C(F)(F)F condition met

---

# experimentalSystem: C-C chemokine receptor type 1 (Homo sapiens, UniProt P32246)
# experimentalDetails: Displacement of [125I]MIP1-alpha from human CCR1 receptor expressed in THP1 cells
# Format: cell-based, THP-1
reportedProperty: pIC50
Scale for pIC50: -log10 of concentration given in mol/L; no unit attached.

Here is how some molecules turned out for pIC50.
Cc1ccccc1S(=O)(=O)NCCCN1CCC(O)(c2ccc(Cl)cc2)CC1 ... 6.82
Cc1ccc(S(=O)(=O)NCCCN2CCC(O)(c3ccc(Cl)cc3)CC2)cc1 ... 6.37

Name the recorded pIC50 for O=S(=O)(NCCCN1CCC(O)(c2ccc(Cl)cc2)CC1)c1ccc(Cl)cc1Cl . 6.39

Try the molecule O=S(=O)(NCCCN1CCC(O)(c2ccc(Cl)cc2)CC1)c1ccccc1-c1ccccc1 6.22
